# Test system: Human breast cancer cell line [MDA-MB-231]
# testDescription: Anti-proliferative activity (WST-8) of BRD4 targeted PROTAC in MDA-MB-231
# Assay type: cell-based
# reportedConditions: Homo sapiens; MDA-MB-231, 72 hours, WST-8; read-out: IC50 of BRD4-targeted PROTAC (cell proliferation)
readoutKind: pIC50
When answering, recall that pIC50 equals minus log10 of the concentration in mol/L, and write that number alone.

- compound: "Cc1sc2c(c1C)C(c1ccc(Cl)cc1)=N[C@@H](CC(=O)NCCN1CCN(c3ccc4c(=O)n(C5CCC(=O)NC5=O)ncc4c3)CC1)c1nnc(C)n1-2 (stereo partly drawn) [Example 48]"
  measurementTarget: "Human breast cancer cell line [MDA-MB-231]"
  pIC50: 8.67

Shift focus to the following entry.
Query: pIC50; subject: Cc1sc2c(c1C)C(c1ccc(Cl)cc1)=N[C@@H](CC(=O)NCCCCCNc1cccc3cnn(C4CCC(=O)NC4=O)c(=O)c13)c1nnc(C)n1-2 (stereo partly drawn) [Example 52] 6.90
